TARGET_OR_TEST_SYSTEM: IGF-1R (Homo sapiens)
Construct: purchased Upstate Co. 14-465
Sequence (P08069 959-1367 limits assumed): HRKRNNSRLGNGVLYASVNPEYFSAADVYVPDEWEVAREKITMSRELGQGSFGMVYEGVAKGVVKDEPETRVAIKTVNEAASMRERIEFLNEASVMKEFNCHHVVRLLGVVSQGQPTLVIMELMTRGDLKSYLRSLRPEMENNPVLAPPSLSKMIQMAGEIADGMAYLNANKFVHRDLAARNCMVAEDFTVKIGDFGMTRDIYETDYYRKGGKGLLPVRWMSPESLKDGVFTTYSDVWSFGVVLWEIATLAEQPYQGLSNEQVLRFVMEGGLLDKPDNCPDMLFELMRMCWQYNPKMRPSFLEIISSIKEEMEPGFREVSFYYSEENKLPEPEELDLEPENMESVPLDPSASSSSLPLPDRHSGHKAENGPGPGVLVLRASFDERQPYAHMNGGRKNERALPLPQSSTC
ASSAY_NOTES: IGF-1R inhibitory activity (kinase reaction, time-resolved fluoroimmunoassay)
Format: biochemical
CONDITION_LABEL: IGF-1R active recombinant enzyme, test compound 10 μmol/L
ASSAY_METRIC: inhibition at 10 µM (%)
Number only, in %; omit the unit.

Qu. # value lookup — system IGF-1R (Homo sapiens), readout inhibition at 10 µM, item CNC(=O)c1nc(-c2ccccc2/C=C/c2n[nH]c3ccccc23)no1
Ans. 99.4

Qu. # value lookup — system IGF-1R (Homo sapiens), readout inhibition at 10 µM, item O=C1c2cc3ccccc3cc2C(=O)N1c1ccccc1/C=C/c1n[nH]c2ccccc12
Ans. 85.9

Qu. # value lookup — system IGF-1R (Homo sapiens), readout inhibition at 10 µM, item C(=C\c1n[nH]c2ccccc12)/c1ccccc1Nc1ccccn1
Ans. 99.1

Qu. # value lookup — system IGF-1R (Homo sapiens), readout inhibition at 10 µM, item Cc1c(Br)csc1C(=O)Nc1ccccc1/C=C/c1n[nH]c2ccccc12
Ans. 102

Qu. # value lookup — system IGF-1R (Homo sapiens), readout inhibition at 10 µM, item O=C(Nc1ccccc1/C=C/c1n[nH]c2ccccc12)C1CC1
Ans. 92.4

Qu. # value lookup — system IGF-1R (Homo sapiens), readout inhibition at 10 µM, item O=C(c1cnc(Nc2ccccc2/C=C/c2n[nH]c3ccccc23)s1)N1CCC(O)CC1
Ans. 87.2

Qu. # value lookup — system IGF-1R (Homo sapiens), readout inhibition at 10 µM, item CSc1ccccc1/C=C/c1n[nH]c2ccccc12
Ans. 78.3

Qu. # value lookup — system IGF-1R (Homo sapiens), readout inhibition at 10 µM, item COCC(=O)N1CCN(Cc2ccc(/C=C/c3n[nH]c4ccccc34)c(NC(=O)c3sccc3C)c2)CC1
Ans. 102

Qu. # value lookup — system IGF-1R (Homo sapiens), readout inhibition at 10 µM, item COCCN1CCN(Cc2ccc(/C=C/c3n[nH]c4ccccc34)c(NC(=O)c3sccc3C)c2)CC1
Ans. 102

Qu. # value lookup — system IGF-1R (Homo sapiens), readout inhibition at 10 µM, item COc1c(OCCCN2CCC(CO)CC2)ccc(/C=C/c2n[nH]c3ccccc23)c1NC(=O)c1sccc1C
Ans. 111

Qu. # value lookup — system IGF-1R (Homo sapiens), readout inhibition at 10 µM, item O=C(Nc1cc(C(=O)N2CCN(CCCO)CC2)ccc1/C=C/c1n[nH]c2ccccc12)c1ccco1
Ans. 97.7

Qu. # value lookup — system IGF-1R (Homo sapiens), readout inhibition at 10 µM, item COc1ccccc1C(=O)Nc1ccccc1/C=C/c1n[nH]c2ccccc12
Ans. 97.3

Qu. # value lookup — system IGF-1R (Homo sapiens), readout inhibition at 10 µM, item C(=C\c1n[nH]c2ccccc12)/c1ccccc1OCc1ccccc1
Ans. 96.9

Qu. # value lookup — system IGF-1R (Homo sapiens), readout inhibition at 10 µM, item CN(C)C(=O)c1ccc(/C=C/c2n[nH]c3ccccc23)c(N2C(=O)c3ccccc3C2=O)c1
Ans. 99

Qu. # value lookup — system IGF-1R (Homo sapiens), readout inhibition at 10 µM, item Cc1ccsc1C(=O)Nc1cc(CN2CCNC[C@H]2C)ccc1/C=C/c1n[nH]c2ccccc12
Ans. 103

Qu. # value lookup — system IGF-1R (Homo sapiens), readout inhibition at 10 µM, item CCN(CC)CCNCc1ccc(/C=C/c2n[nH]c3ccccc23)c(NC(=O)c2sccc2C)c1
Ans. 99.5

Qu. # value lookup — system IGF-1R (Homo sapiens), readout inhibition at 10 µM, item CCN(CC)CCCOc1cc(NC(=O)c2sccc2C)c(/C=C/c2n[nH]c3ccccc23)cc1OC
Ans. 97.2
